Tested on: TO-N3-2 (biotin conjugate)
Assay: pull-down binding Z-score (relative to library population); higher = stronger binding
Settings: RNA library: Library-2
Label f if pull-down binding Z-score falls below -0.3; label t in every other case.

GACGUCCAAUCUCUUUGGGACGCC [hsa-mir-2682] ... f
AGUUUCUGGAAUGUCAGAACUUCCAGAAACU [hsa-mir-3199-2] ... f

[Q] Could you please find out whether AAUGUCAGGGCCACCCCUGACCUU [hsa-mir-6837] has pull-down binding Z-score that meets -0.3 or exceeds it?
[A] f

* * *

Would you mind telling me the reported pull-down binding Z-score of each entry?
Test system: TO-N3 (biotin conjugate)
Assay: pull-down binding Z-score (relative to library population); higher = stronger binding
Settings: RNA library: Library-2
Answers are plain numbers.

GUGAUGUGAGGAGCAACAGGCACCCUCCU [hsa-mir-6792] ... 0.246
GCAGUAAGUCUGAUACUUACCUG [U1snRNP5ss-9] ... 0.947
AGUGUUUGCCUAGGUUCUUUAAUCUACUCAACCGCU ... -0.288
GUCCUAAAGUGAAGUAUUUAUACUUUAUUAAAGGAU [SHAPE_invivo_SARS-CoV-2_Motif_244] ... -1.19

[Q] Please look up its pull-down binding Z-score: CACAGAGUAAGCAUCAAUAGCAUUGGCAAGUUGAACUGAGCUGUC [hsa-mir-6895]
[A] 0.466

* * *

System: TO-N3-2 (biotin conjugate)
Test: pull-down binding Z-score (relative to library population); higher = stronger binding
Conditions: RNA library: Library-2
For each of the sequences below, state its pull-down binding Z-score.

Solved cases (10 shown):
GGGUAGGGUUUGGGGGAGAGCGUGGGCUGGGGUUCAGGGACA [pre-miRNA-1229_WT_FL] ... 5.13
AGUUCAAGAAAUUCAACU ... -0.672
GAGUUUUUAGUGCAGUUGGUAACAUCUGUUACACACCAUCAAAACUU ... 0.396
CAGCCUGUUGUCAAGGCUG [hsa-mir-3130-1] ... -0.199
GAAGGGAAGCUGGGAACCUGACUGCCUC [hsa-mir-6867] ... 1.66
GCGCUGCCAGAAACUGGCUAGCGC [bulge-U] ... -0.75
CCUCGUACAAAAUUUUCAAGAUCGAAAAGGGG [IAV_invivo_NA_6_Motif_10+IAV_invivo_NA_6_Motif_10] ... -0.605
GGUACAACAACUUACAAAUUAAAUGUUGGUGAUUAUUUUGUGCU [SHAPE_invivo_SARS-CoV-2_Motif_319] ... -0.524
GGCUUUGGCAUCUAUGAAAGCC [hsa-mir-4755] ... -0.233
UCUUUGGUAAUAAGGUUUGGCAAAGA [hsa-mir-576] ... -0.0599

I have 5 sequences here; please give me pull-down binding Z-score for each one.
1. GAGUGGUCGGGUCGACUGAACC [hsa-mir-4726]
2. CACGAGAUACCAGUGUGCACUUGUG [hsa-mir-542]
3. AGAAAUCAAGCUAUUUGCUAAAAGUUCU [hsa-mir-6844]
4. GCCAGUGUUCAAGGGCCCCUCCUCUAGUACUCCCUGUUUGUGUUCUGCCACUGA [hsa-mir-6857]
5. UCCAUGAAAAGAACCCAUGGG [hsa-mir-4471]

[A]
1.34
0.103
-0.0563
1.37
-0.307

Provide the reported pull-down binding Z-score of each entry below, same order.
1. GGCGACUGGUGUCUAAUUUGUUUGUC [hsa-mir-4429]
2. CUGUCUGUUGUCUAAGAAAAGAUCG [hsa-mir-517c_517b]
3. GAAUUCGCUUUAUUUAUGUUGAAUC [hsa-mir-377]
4. GCUGGGCUGAGCUAACCAGGGCUGGGCUGAGC [hsa-mir-4537]
5. GCUUUCUGUGGUCAGAAAGAAAAGCAAGU [hsa-mir-520f]
6. GAGUUGCUGAGUGGGUUGAUCUC [hsa-mir-6764]

[A]
[-0.308, 0.202, -0.874, 1.42, 0.76, 0.652]

[Q] Notebook: pull reported pull-down binding Z-score for TO-N3-2 (biotin conjugate), entry CGAGGUGG [hsa-mir-4302]
[A] 0.675

* * *

Test system: TO-3-N3-2 (biotin conjugate)
Assay: pull-down binding Z-score (relative to library population); higher = stronger binding
Conditions: RNA library: Library-2
Experimental Endpoint: pull-down binding Z-score
Numbers only.

Examples with their reported pull-down binding Z-score follow.
ACCCGGGUGGUGGAGGUUGCAGUGAGCCAAGAUUGCGCCACUGCACUCCAGCCUGGGC [hsa-mir-1273a] ... 0.442
AUGCUGACGAUGGUCAUUUUGUCAGCAU [IAV_invivo_M1_M2_7_Motif_18+IAV_invivo_M1_M2_7_Motif_18] ... 0.337
AAAAACACCCAAGAAGUUUUU ... -0.458

Below is a list of sequences. For each, state its recorded pull-down binding Z-score.
1. GAGAGUGUUCAGACAUUCUU [SHAPE_invivo_SARS-CoV-2_Motif_44]
2. GCAGCCAAACUAAUGGUUGU
3. AUGAAUCUCUCAU [SHAPE_invivo_SARS-CoV-2_Motif_473]
4. UGCUCCUUGAACAGGAGGAGCA [hsa-mir-4708]
5. GCGCCGCCAGAAACUGGCAGCGC [mismatch-CA]
6. GGCAGUGGUUCUAAAAGCUGUC [hsa-mir-3618]

[A]
-0.0995
0.228
-0.347
-0.405
-0.524
-0.198

Please supply pull-down binding Z-score for each of the following items, keeping them in order.
1. CUGGGGACUGUGUGGACUGGUAUCACCCAG [hsa-mir-2278]
2. GGCAGGUGUGGUUGGAGGAAGCAGCCUGAACCUGCC [hsa-mir-6778]

[A]
[-0.298, 0.333]

Please state, for each entry, its recorded pull-down binding Z-score.
1. UUGGUCCGUAUGUGUGGUGCCACCGG [hsa-mir-1908]
2. GCGCUGCCAGAAACUGGCAGCGC [full-UA]
3. AUAAUACGGAUUACGUUGUUA [hsa-mir-137]
4. CUUCCUGAGCACGCUCAUGAUGAGCAAACUGAGCCUCUAAG [hsa-mir-3653]

[A]
[-0.0706, -0.274, -0.139, 0.277]

Parameters: items (list). Returns: pull-down binding Z-score for each item.
1. CUUACUGACAAUGUAUACAUUAAAAAUGCAGACAUUGUGGAAG [DMSMaPseq_invitro_SARS-CoV-2_Motif_59]
2. CACACGCUUUAUUUGUGCCGUUUG [hsa-mir-758]
3. GGCGAAUCUGGCGCC [IAV_invivo_NP_5_Motif_7+IAV_invivo_NP_5_Motif_7]
4. CAGAUACUUUUUAAAAUUUGUUUGAGUUGAGGCAGAUUAAAUAUCUG [hsa-mir-4742]
5. CACAAGGCAGAUGGGCUAUAUAAACGUUUUCGCUUUUCCGUUUACGAUAUAUAGUCUACUCUUGUG
6. CAGUAUGAAUGAAUUCAUGAUACUG [hsa-mir-3607]

[A]
1. -0.18
2. -0.318
3. -0.231
4. 0.104
5. -0.5
6. -0.718

* * *

System: G-clamp-N3 (biotin conjugate)
Assay: pull-down binding Z-score (relative to library population); higher = stronger binding
Conditions: RNA library: Library-1 (pre-miRNA loops + repeats)
Label Not fulfilled if pull-down binding Z-score falls below -0.6; label Fulfilled in every other case.

Recorded results for 5 sequences are shown here.
AUUGUUGCCUCUGCAUGUUACAAU [hsa-mir-8066] ... Fulfilled
UGCCCUGGGGCCGUCCCUGCGCA [hsa-mir-1909] ... Not fulfilled
UCAGGUGAAUGUGUCUGG [hsa-mir-3916] ... Not fulfilled
UAAAGAGUAUUCAACAUC [hsa-mir-1245b] ... Not fulfilled
UGUUUAUGUUAUUUAUGGUUAAACA [hsa-mir-376c] ... Fulfilled

[Q] Could you tell me if the measured pull-down binding Z-score of UUUUAGAA [hsa-mir-4443] reaches -0.6 or more?
[A] Not fulfilled

[Q] # check: pull-down binding Z-score of CAUACAUUUUGAAUAUGUAUG [hsa-mir-299] is greater than or equal to -0.6
[A] Fulfilled

[Q] Has UUUUCCUGAGAAUAAGAGAAGGAAGG [hsa-mir-4455] a recorded pull-down binding Z-score greater than or equal to -0.6?
[A] Fulfilled

[Q] Decide: is the reported value of pull-down binding Z-score for UCCUGAGACAGGA [hsa-mir-4261] equal to or greater than -0.6?
[A] Fulfilled

[Q] Threshold query (pull-down binding Z-score >= -0.6) on AUGUGAUGUGAGCAGAUGGUUCUCACU [hsa-mir-6758]
[A] Fulfilled

[Q] Can AACAGCAGGAUUGGCUGUAGCUGUU [hsa-mir-2117] be said to have pull-down binding Z-score at or above -0.6?
[A] Fulfilled

[Q] Hi team, for UCCAGGGCUCCUGACACCUGGA [hsa-mir-6861] , is the recorded pull-down binding Z-score at or above -0.6?
[A] Not fulfilled
